All values here come from patent US20240270751A1.

# pIC50 per entry
target: DGKζ (Homo sapiens (Human), UniProt Q13574); test: Biochemical DGK IC50 assay, DGKζ ADP-Glo assay; conditions: 0.5 nM enzyme, 140 μM ATP, 80 μM DAG; read-out: DGKζ ADP-Glo assay IC50
Sequence (Q13574 other isoform, or with tags, fused parts or gaps): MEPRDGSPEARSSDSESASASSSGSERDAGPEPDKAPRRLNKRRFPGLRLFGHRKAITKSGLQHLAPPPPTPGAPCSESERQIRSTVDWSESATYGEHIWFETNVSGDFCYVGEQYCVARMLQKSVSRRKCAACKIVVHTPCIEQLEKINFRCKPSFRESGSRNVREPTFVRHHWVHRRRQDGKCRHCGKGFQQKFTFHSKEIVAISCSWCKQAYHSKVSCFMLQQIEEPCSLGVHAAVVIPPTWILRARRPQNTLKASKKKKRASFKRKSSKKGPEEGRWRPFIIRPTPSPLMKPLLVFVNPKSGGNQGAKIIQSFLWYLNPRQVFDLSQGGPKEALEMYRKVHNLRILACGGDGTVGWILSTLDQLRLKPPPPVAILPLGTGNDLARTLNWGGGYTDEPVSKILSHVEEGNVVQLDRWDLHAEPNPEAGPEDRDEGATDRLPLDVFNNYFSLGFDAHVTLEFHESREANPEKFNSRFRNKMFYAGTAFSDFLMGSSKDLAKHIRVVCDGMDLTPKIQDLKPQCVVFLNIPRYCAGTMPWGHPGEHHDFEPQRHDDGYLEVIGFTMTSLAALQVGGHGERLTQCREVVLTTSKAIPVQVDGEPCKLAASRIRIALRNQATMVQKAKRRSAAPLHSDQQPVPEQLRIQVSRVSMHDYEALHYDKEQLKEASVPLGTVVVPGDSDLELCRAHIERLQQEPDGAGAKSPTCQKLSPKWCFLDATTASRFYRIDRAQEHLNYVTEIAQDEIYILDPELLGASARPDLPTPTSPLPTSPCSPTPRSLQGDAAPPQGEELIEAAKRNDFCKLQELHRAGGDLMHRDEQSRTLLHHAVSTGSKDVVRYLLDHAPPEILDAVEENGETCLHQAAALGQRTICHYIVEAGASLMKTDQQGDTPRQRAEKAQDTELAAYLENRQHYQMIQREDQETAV
pIC50: −log10 of the molar value.
reported.endpoint: pIC50

* CC[C@H]1CN(C(C)c2ccc(C(C)(C)C#N)cn2)[C@H](CC)CN1c1cc(=O)n(C)c2cn(CC#N)nc12 (stereo partly drawn) | 6.38
* CC[C@H]1CN(C(C)c2ccc3nccnc3c2)[C@H](CC)CN1c1cc(=O)n(CC)c2cn(CC#N)nc12 (stereo partly drawn) | 8.03
* CC[C@H]1CN(C(C)c2cnc3ccccc3n2)[C@H](CC)CN1c1cc(=O)n(C)c2cn(CC#N)nc12 (stereo partly drawn) [Compound A55] | 8.05
* CC[C@H]1CN(C(C)c2ccc(C(F)(F)F)cc2)[C@H](CC)CN1c1cc(=O)n(C)c2cn(CC#N)nc12 (single isomer, unassigned) [Compound A103b] | 5.57
* C[C@@H]1CN(c2cc(=O)n(C)c3cn(CC#N)nc23)[C@@H](C)CN1Cc1ccc(F)cc1C(F)(F)F | 5.97
* CC[C@H]1CN(C(C)c2cc3cnccc3cn2)[C@H](CC)CN1c1cc(=O)n(C)c2cn(CC#N)nc12 (single isomer, unassigned) [Compound A368b] | 6.42

* * *

target: UniProt:Q13574; experiment: Biochemical DGK IC50 assay, DGKζ ADP-Glo assay; conditions: 0.5 nM enzyme, 140 μM ATP, 80 μM DAG; read-out: DGKζ ADP-Glo assay IC50
pIC50: −log10 of the molar value.
Measured pIC50, listed per entry.
reported.endpoint: pIC50

• CC(c1ccc2c(n1)OC(C)(C)CO2)N1C[C@H](C)N(c2cc(=O)n(C)c3cn(CC#N)nc23)C[C@H]1C (some centres unmarked) = 7.05
• CC[C@H]1CN(C(C)c2ccc3cccnc3c2)[C@H](CC)CN1c1cc(=O)n(C)c2cn(CC#N)nc12 (some centres unmarked) = 8.07
• C[C@@H]1CN(c2cc(=O)n(C)c3cn(CC#N)nc23)[C@@H](C)CN1C(c1ccc2nccnc2c1)C(F)F (some centres unmarked) = 6.82
• CC(c1ccc(Cl)cc1C(F)(F)F)N1C[C@H](C)N(c2cc(=O)n(C)c3cn(CC#N)nc23)C[C@H]1C (some centres unmarked) = 5.49
• CC[C@H]1CN(C(C)c2cc3ccccc3c(C)n2)[C@H](CC)CN1c1cc(=O)n(C)c2cn(CC#N)nc12 (some centres unmarked) = 5.44
• CC[C@@H]1CN(c2c(Cl)c(=O)n(C)c3cn(CC#N)nc23)CCN1C(C)c1ccc2nccnc2c1 (single isomer, unassigned) [Compound A162b] = 5.98
• CC[C@H]1CN(C(C)c2ccc(OC3CCOC3)cc2)[C@H](CC)CN1c1cc(=O)n(C)c2cn(CC#N)nc12 (some centres unmarked) = 6.03
• CC[C@@H]1CN(c2cc(=O)n(C)c3cn(CC#N)nc23)[C@@H]([C@@H](C)O)CN1C(C)c1ccc2nccnc2c1 (some centres unmarked) = 6.42
• CC(c1ccc(CN2CCOC(C)(C)C2)cc1)N1C[C@H](C)N(c2cc(=O)n(C)c3cn(CC#N)nc23)C[C@H]1C (some centres unmarked) = 5.37
• CC(c1ccc2ncc(C(F)(F)F)nc2c1)N1C[C@H](C)N(c2cc(=O)n(C)c3cn(CC#N)nc23)C[C@H]1C (some centres unmarked) = 6.16
• CC[C@H]1CN(C(C)c2ccc3ccncc3c2)[C@H](CC)CN1c1cc(=O)n(C)c2cn(CC#N)nc12 (some centres unmarked) = 7.32
• COC(C)c1cc(F)ccc1C(C)N1C[C@H](C)N(c2cc(=O)n(C)c3cn(CC#N)nc23)C[C@H]1C (single isomer, unassigned) [Compound A286b] = 7.77
• CC#CCn1cc2c(n1)c(N1C[C@@H](C)N([C@H](C)c3ccc4nccnc4c3)C[C@@H]1C)cc(=O)n2C [Compound A22a] = 4.89
• CC(c1cc2ccccc2cn1)N1C[C@H](C)N(c2cc(=O)n(C)c3cn(CC#N)nc23)C[C@H]1C (some centres unmarked) = 5.92
• C[C@H](c1ccc2nccnc2c1)N1CC2CCC1CN2c1cc(=O)n(C)c2cn(CC#N)nc12 (some centres unmarked) [Compound A125b] = 5.28
• CC[C@H]1CN(C(C)c2cc3ccccc3n2CC)[C@H](CC)CN1c1cc(=O)n(C)c2cn(CC#N)nc12 (some centres unmarked) = 7.03
• CC[C@H]1CN(C(C)c2ccc(F)cc2C(N)=O)[C@H](CC)CN1c1cc(=O)n(C)c2cn(CC#N)nc12 (some centres unmarked) = 5.95
• CC[C@H]1CN(C(C)c2ccc3ccccc3n2)[C@H](CC)CN1c1cc(=O)n(C)c2cn(CC#N)nc12 (some centres unmarked) = 7.30
• CC[C@H]1CN(C(C)c2ccc(F)cc2C(C)OC)[C@H](CC)CN1c1cc(=O)n(C)c2cn(CC#N)nc12 (some centres unmarked) = 7.72
• CCc1cnc2ccc(C(C)N3C[C@H](C)N(c4cc(=O)n(C)c5cn(CC#N)nc45)C[C@H]3C)cc2n1 (some centres unmarked) = 7.19
• CC#CCn1cc2c(n1)c(N1C[C@@H](C)N(C(C)c3ccc4c(c3)OC(C)(C)O4)C[C@@H]1C)cc(=O)n2C (some centres unmarked) = 6.31
• C[C@@H]1CN(c2cc(=O)n(C)c3cn(CC#N)nc23)[C@@H](C)CN1[C@@H](C)c1ccc2c(c1)OC(C)(C)CO2 [Compound A46b] = 7.68
• CC#CCn1cc2c(n1)c(N1C[C@@H](CC)N(C(C)c3ccc4c(c3)OC(F)(F)O4)C[C@@H]1C)cc(=O)n2C (single isomer, unassigned) [Compound A392a] = 5.83
• CC[C@H]1CN(C(C)c2ccc3nccnc3c2)[C@H](CC)CN1c1cc(=O)n(C)c2cn(CC#N)nc12 (single isomer, unassigned) [Compound A28a] = 8.12
